Numbers sourced from patent US20160200799A1.

- measured.target: Influenza virus A/Panama/2007/1999 (H3N2) (Influenza A virus A/Panama/2007/1999 (H3N2))
- experiment: ELISA on coated viral particles
measured.property: Binding activity (absorbance at 492 nm)
Format: numeric value only, no unit, no commentary.

binder	Binding activity (absorbance at 492 nm)
Group 64 representative clone F083-301, Fab-cp3-type antibody (Fab, V domains shown) VH: QVQLVQSGAEVKKPGSSVKVSCKASGGIFNSNAISWVRQAPGQGLEWMGGIIGIFGTANYAQKFQGRVTIAADQSTNTVFMELSSLTSEDTAVYFCARSRGYSFGYGTDYFDYWGQGTLVTVSS VL: DIVMTQSPSTLSASVGDRVTITCRASQSISSWLAWYQQAPGKAPKLLIYEASKLQSGVPSRFSATGSGTEFTLTIASLQPEDFAIYYCQHYEAYPFSFGPGTKLDVK	0.16

Consider now this further binder.
Record request: Binding activity (absorbance at 492 nm) value, item Group 63 representative clone F083-336, Fab-cp3-type antibody (Fab, V domains shown) VH: QVQLQQSGAEVKQPGSSVKVSCKASGGIFRSNAISWVRQAPGQGLEWMGGIVALFGTANYAQKFQGRVTITADESTSTVYMELSSLRSEDTARYYCARNSGYHISGFYLDYWGQGTLVTVSS VL: EIVLTQSPSSLSASVGDRVTITCRASQGISNYLAWYQQRPGKVPKLLIYTASTLLSGVPSRFSGGGSGTDYTLTISSLQPEDVATYYCQEYKSVPLTFGPGTKVEIK 0.15
